Reference source for all entries: paper PMC7719619

Assay type: in vitro ADME
Conditions: microsomes
Square brackets hold non-standard residues; d marks the D form. Peptide text beside a SMILES is read from it. Gly(N-CH2-oxan-4-yl) = O=C(O)CNCC1CCOCC1; NCyclohexylmethylGly = O=C(O)CNCC1CCCCC1; NMeL = CN[C@@H](CC(C)C)C(=O)O; NMeA = CN[CH](C)C(=O)O; NEtG = CCNCC(=O)O
# microsomal stability values compiled below
Write the answer as a number in %, unit excluded.

Example cases with answers are listed next.
- compound: "CCN1CC(=O)N[C@@H](CC(C)C)C(=O)N(C)[C@@H](C)C(=O)N[C@@H](CC(C)C)C(=O)N2CCC[C@@H]2C(=O)N(CC2CCOCC2)CC(=O)N[C@@H](CC(C)C)C(=O)N(C)[C@@H](C)C(=O)N[C@@H](Cc2ccccc2)C(=O)N2CCC[C@@H]2C1=O [A09] (cyclo([NEtG]L[NMeA]L[dP][Gly(N-CH2-oxan-4-yl)]L[NMeA]F[dP]))"
  endpoint_name: "microsomal stability"
  observed_result: 67
- compound: "CCN1CC(=O)NC(CC(C)C)C(=O)N(C)C(C)C(=O)NC(CC(C)C)C(=O)N2CCCC2C(=O)N(CC2CCCCC2)CC(=O)NC(CC(C)C)C(=O)N(C)C(C)C(=O)NC(Cc2ccccc2)C(=O)N2CCCC2C1=O (centres unmarked) [A08] (cyclo([NEtG]L[NMeA]LP[NCyclohexylmethylGly]L[NMeA]FP); configuration not given here)"
  endpoint_name: "microsomal stability"
  observed_result: 33
- compound: "CCN1CC(=O)NC(CC(C)C)C(=O)N(C)C(C)C(=O)NC(CC(C)C)C(=O)N2CCCC2C(=O)N(CC2CCOCC2)CC(=O)NC(CC(C)C)C(=O)N(C)C(C)C(=O)NC(C)C(=O)N2CCCC2C1=O (centres unmarked) [A03] (cyclo([NEtG]L[NMeA]LP[Gly(N-CH2-oxan-4-yl)]L[NMeA]AP); configuration not given here)"
  endpoint_name: "microsomal stability"
  observed_result: 64
- compound: "CCN1CC(=O)N[C@@H](CC(C)C)C(=O)N2CCC[C@@H]2C(=O)N(C)[C@@H](CC(C)C)C(=O)N[C@@H](C)C(=O)N(CC2CCCCC2)CC(=O)N[C@@H](Cc2ccccc2)C(=O)N2CCC[C@@H]2C(=O)N(C)[C@@H](CC(C)C)C(=O)N[C@@H](C)C1=O [B08] (cyclo([NEtG]L[dP][NMeL]A[NCyclohexylmethylGly]F[dP][NMeL]A))"
  endpoint_name: "microsomal stability"
  observed_result: 53

Okay, now this compound:
Request: # query: microsomal stability of entry CCN1CC(=O)N[C@@H](CC(C)C)C(=O)N2CCC[C@@H]2C(=O)N(C)[C@@H](CC(C)C)C(=O)N[C@@H](C)C(=O)N(CC2CCOCC2)CC(=O)N[C@@H](Cc2ccccc2)C(=O)N2CCC[C@@H]2C(=O)N(C)[C@@H](CC(C)C)C(=O)N[C@@H](C)C1=O [B09] (cyclo(A[NEtG]L[dP][NMeL]A[Gly(N-CH2-oxan-4-yl)]F[dP][NMeL]))
Result: 90
